- measurement notes: in vivo
- stated conditions: Bama miniature, pig, in vivo, po, C max
attribute measured: Cmax (ng/mL)

compound="COc1cc2ccc(=O)oc2c(O[C@@H]2O[C@H](CO)[C@@H](O)[C@H](O)[C@H]2O)c1O [Fraxin, fraxin]" attribute_measured=Cmax experimental_result=36.8
compound="c1c2c(cc3c1OCO3)-c1cc3ccc4c(c3c[n+]1CC2)OCO4 [Coptisine chloride, coptisine chloride]" attribute_measured=Cmax experimental_result=5.9

(I) CC1(C)OC(=O)C=C[C@]2(C)[C@H]3CC[C@@]4(C)[C@H](c5ccoc5)OC(=O)[C@H]5O[C@]54[C@]3(C)C(=O)C[C@@H]12 [Obacunone, obacunone]
(II) COc1ccc2cc3[n+](cc2c1OC)CCc1cc2c(cc1-3)OCO2 [Berberine, berberine]
(III) COc1cc2ccc(=O)oc2c(O)c1O [Fraxetin, fraxetin]
Provide the items ranked by increasing Cmax. Please list the labels according to the requested order. I, II, III
(I: 7.39 ng/mL, II: 28.4 ng/mL, III: 119 ng/mL)

###

- measurement notes: Plasma pharmacokinetics after single oral (intragastric) administration of BTWD extract
- stated conditions: Bama miniature, pig, plasma, po, 1 mL/kg
Catalogue of Tmax values
Provide only the numeric value, understood in h.

cpd_smiles=O=c1ccc2cc(O)c(O)cc2o1 attribute_measured=Tmax scale_unit=h experimental_result=4

Continue with the next compound.
Provide only the value of recorded Tmax for `COc1cc2c(cc1O)-c1cc3ccc(OC)c(OC)c3c[n+]1CC2` 12

###

- measurement notes: Plasma pharmacokinetics after single oral (intragastric) administration of BTWD extract
- stated conditions: Bama miniature, pig, in vivo, po, 1 mL/kg
attribute measured: Tmax (h)
Provide only the numeric value, understood in h.

Provide only the value of recorded Tmax for O=c1ccc2cc(O[C@@H]3O[C@H](CO)[C@@H](O)[C@H](O)[C@H]3O)c(O)cc2o1 [Esculin, esculin] 1

###

- measurement notes: Plasma pharmacokinetics after single oral (intragastric) administration of BTWD extract
- stated conditions: Bama miniature, pig, plasma, po, 1 mL/kg
Catalogue of MRT values
Provide only the numeric value, understood in h.

cpd_smiles=O=c1ccc2cc(O)c(O)cc2o1 experimental_result=8.97

Provide only the value of recorded MRT for `COc1cc2c(cc1O)-c1cc3ccc(OC)c(OC)c3c[n+]1CC2` 12.5

###

- measurement notes: Plasma pharmacokinetics after single oral (intragastric) administration of BTWD extract
- stated conditions: Bama miniature, pig, in vivo, po, 1 mL/kg
attribute measured: AUC(0-t) (ng·h/mL)
Provide only the numeric value, understood in ng·h/mL.

Provide only the value of recorded AUC(0-t) for O=c1ccc2cc(O[C@@H]3O[C@H](CO)[C@@H](O)[C@H](O)[C@H]3O)c(O)cc2o1 [Esculin, esculin] 531
